Reported interaction score values follow for various binders
Target: T1, P6-AA-12HGe-K
T1 chain: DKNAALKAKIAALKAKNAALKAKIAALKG
Assay: two-hybrid library CCmax;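 further: natural log of median RNA to DNA barcode read ratio; higher means stronger binding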
Conditions: mean of both orientations
Write the value as a bare number.

>>> quantitativereadout("DENAALEADIAALDADNAALDAEIAALEG [P5-AA-12HGe-D]")
-0.581
>>> quantitativereadout("DENAALEAWIAALWAWNAALWAEIAALEG [P5-AA-12HGe-W]")
-2.03
>>> quantitativereadout("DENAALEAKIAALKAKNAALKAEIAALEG [4H1401-AA]")
-0.592
>>> quantitativereadout("DENAALEAHIAALHAHNAALHAEIAALEG [P5-AA-12HGe-H]")
-1.26
>>> quantitativereadout("DENAALEATIAALTATNAALTAEIAALEG [P5-AA-12HGe-T]")
0.446

Sample DENAALEAMIAALMAMNAALMAEIAALEG [P5-AA-12HGe-M] ; interaction score observed: 1.12

For reference, reported interaction score for DENAALEAEIAALEAENAALEAEIAALEG [P5-AA-12HGe-E] stands at 1.8
